Tested on: LXFL 529 NSCLC
Test: NCI tumour cell line growth inhibition, 48 h
# key: entry, value: TGI

These solved cases illustrate the format of a correct answer.
(Q) Which value of TGI has been reported for C=CC1(C)CCC2=C(CCC3C(C)(C(=O)OC)CCCC23C)C1=O (centres undefined) in the records?
(A) 36.4 µM

(Q) Another compound: Cc1[nH]c2ccccc2c1C1Cc2ccccc2N1C(=O)/C(Cl)=C/c1ccccc1 (centres undefined)
(A) > 100 µM

(Q) Another compound: N#CCc1ccc(C(C#N)/C(CCCC(=O)Nc2cccc([N+](=O)[O-])c2)=N/NC(N)=S)cc1 (centres undefined)
(A) > 100 µM

Moving on to the next compound.
(Q) Which value of TGI has been reported for "c1cc[c]([Pb]([c]2ccccc2)[c]2ccccc2)cc1" in the records?
(A) 17.2 µM
